STUDY TARGET: mouse TGR5 receptor (Mus musculus)
Construct: host or cells: HEK293-EBNA (293 c18, ATCC CRL10852)
Sequence (Q80SS6 1-329): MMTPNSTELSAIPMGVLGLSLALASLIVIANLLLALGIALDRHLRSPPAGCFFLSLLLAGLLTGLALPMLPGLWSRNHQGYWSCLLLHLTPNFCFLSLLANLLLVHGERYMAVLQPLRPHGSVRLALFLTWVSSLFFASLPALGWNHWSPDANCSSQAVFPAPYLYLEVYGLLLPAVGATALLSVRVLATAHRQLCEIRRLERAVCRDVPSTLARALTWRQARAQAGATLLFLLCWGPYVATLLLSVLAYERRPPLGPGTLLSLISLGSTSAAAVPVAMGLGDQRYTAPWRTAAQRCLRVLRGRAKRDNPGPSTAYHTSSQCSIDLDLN
EXPERIMENT NOTES: Mouse TGR5 luminescent cAMP production assay (HEK293-EBNA cells, DiscoveRx cAMP XS+ kit)
Type: cell-based
DETAILS: HEK293-EBNA cells overexpressing mouse TGR5, luminescent cAMP assay; read-out: Mouse TGR5 Lum. cAMP Activity (EC50)
Documented EC50 across a set of compounds
RESULT TYPE: EC50

COMPOUND: N#Cc1ccc(CCNC(=O)[C@@H]2CCN2c2cc(-c3cccnc3)nc(C(F)(F)F)n2)cc1 [Compound 305]
VALUE REPORTED: 100 to 999 nM
--
COMPOUND: N#Cc1ccc(CCNC(=O)[C@@H]2CCCN(c3cc(N4CCC(CO)CC4)nc(C(F)(F)F)n3)C2)cc1 [Compound 308]
VALUE REPORTED: < 100 nM
--
COMPOUND: CS(=O)(=O)c1ccc(-c2cc(N3CCC[C@H]3C(=O)NCCc3ccc(C#N)cc3)nc(C(F)(F)F)n2)cc1 [Compound 152]
VALUE REPORTED: < 100 nM
--
COMPOUND: N#Cc1ccc(CCNC(=O)[C@@H]2CCCN(c3cc(OC4CCOCC4)nc(C(F)(F)F)n3)C2)cc1 [Compound 334]
VALUE REPORTED: < 100 nM
--
COMPOUND: N#Cc1ccc(CCNC(=O)[C@@H]2CCCN2c2cc(-c3cc4ccccc4s3)nc(C(F)(F)F)n2)cc1 [Compound 173]
VALUE REPORTED: 100 to 999 nM
--
COMPOUND: N#Cc1ccc(CCNC(=O)[C@@H]2CCCN2c2cc(-c3ccncc3)nc(C(F)(F)F)n2)cc1 [Compound 141]
VALUE REPORTED: 100 to 999 nM
--
COMPOUND: COCC1CCN(c2cc(N3CCC[C@H]3C(=O)NCCc3ccc(C(F)(F)F)cc3)nc(C(F)(F)F)n2)CC1 [Compound 8]
VALUE REPORTED: 100 to 999 nM
--
COMPOUND: O=C(NCCc1ccc(C(F)(F)F)cc1)[C@@H]1CCCN1c1cc(N2CCC(CO)CC2)nc(C(F)(F)F)n1 [Compound 2]
VALUE REPORTED: < 100 nM
--
COMPOUND: O=C(NCCc1ccc(C(F)(F)F)cc1)[C@@H]1CCCN(c2cc(N3CCNCC3)nc(C(F)(F)F)n2)C1 [Compound 327]
VALUE REPORTED: 100 to 999 nM
--
COMPOUND: COCC1CCN(c2cc(N3CC[C@H]3C(=O)NCCc3ccc(C#N)cc3)nc(C(F)(F)F)n2)CC1 [Compound 222]
VALUE REPORTED: 100 to 999 nM
--
COMPOUND: N#Cc1ccc(CCNC(=O)[C@@H]2CCCN2c2cc(-c3ccc(C#N)cc3)nc(C(F)(F)F)n2)cc1 [Compound 145]
VALUE REPORTED: < 100 nM

Ref: patent US10654834B2
